Values were extracted from patent US20050197371A1.

Can you tell me pKd for the items I'm about to list?
target: PDGFRB(DKIN) (PDGFR-β) (Homo sapiens, UniProt P09619); construct: PDGFRB(DKIN); test: Phage-display competitive binding assay, PDGFRB(DKIN); details: T7 phage displaying human PDGFR-β, DKIN construct; read-out: Binding Assay: PDGFRB(DKIN)
pKd: −log10 of the molar value.

In: Specify reported pKd for the compound shown: CC(C)(C)c1cc(NC(=O)Nc2ccc(NC(=O)c3cn4cc(Cl)ccc4n3)cc2)no1 [Compound N3]
Out: > 7.00

In: Read the entry Cc1nc(C(=O)Nc2ccc(NC(=O)Nc3cc(C(C)(C)C)on3)cc2)c(C(F)(F)F)o1 [Compound N55] and write its reported pKd.
Out: 6.00 to 7.00

In: Tell me measured pKd for Cn1c(SCC(=O)Nc2ccc(NC(=O)Nc3cc(C(C)(C)C)on3)cc2)nnc1-c1cccn(Cc2ccccc2)c1=O [Compound Z47] please.
Out: 6.00 to 7.00

In: Let me know recorded pKd for COc1ccc(NC(=O)Nc2cc(C(F)(F)F)cc(Cl)n2)cc1 [Compound Z71] , thanks.
Out: 6.00 to 7.00

In: Determine its reported pKd: CC(C)(C)c1cc(NC(=O)Nc2ccc(C(=O)O)cc2)no1 [Compound C2]
Out: < 5.00

In: Identify measured pKd corresponding to CC(C)(C)c1cc(NC(=O)Nc2ccc(OC(F)F)cc2)no1 [Compound A12]
Out: 6.00 to 7.00

In: Using the record for CC(C)(C)c1cc(NC(=O)Nc2ccc(OCCN3CCOCC3)cc2)no1 [Compound G40] , state its measured pKd.
Out: 5.00 to 6.00

In: # return recorded pKd for entry Cc1cccnc1C(=O)Nc1ccc(NC(=O)Nc2cc(C(C)(C)C)on2)cc1 [Compound N41]
Out: > 7.00
